For each entry below, report its Inhibition value.
- Tested on: HepG2
- test.summary: GSK_TCMDC: Percent inhibition of human HepG2 cell line. Test compounds present at 10uM.
- Format: functional
Output should be the measured figure followed by the unit it is expressed in.

1. Cn1nccc1C(=O)NCCNCc1cccc(-c2ccc(-c3nc4cc(C(F)(F)F)ccc4[nH]3)s2)c1.O=C(O)C(F)(F)F; 36%

For every listed record, write down its Inhibition.
1. O=C(NC1CCN(Cc2ccc3c(c2)OCCO3)CC1)c1ccc(-c2cccc(Cl)c2)s1.O=C(O)C(F)(F)F
2. CC1CN(CCCn2c3ccccc3c3ccc(C(=O)CCCN(C)C)cc32)CC(C)N1.Cl (centres undefined)
3. CN(C)CCC1CCCc2ccc(NC(=O)Nc3cccc(Cl)c3Cl)cc21.Cl (centres undefined)
4. COc1cc2[nH]c(-c3ccc(O)cc3)c(C)c(=O)c2c(OC)c1OC
5. CC(C)C1c2ccc(O)cc2CC2C(=O)N(C3CCCCC3)C(=O)N21 (centres undefined)
6. COc1ccc2nc(C)cc(Nc3ccc(Oc4ccc(Cl)c5ccccc45)c(Cl)c3)c2c1
7. Br.Oc1ccc(CCNCCCCNCCc2ccc(Cl)cc2)cc1O

1: 46%; 2: 26%; 3: 44%; 4: 1%; 5: 2%; 6: 83%; 7: 33%

Quick one: give measured Inhibition for `COc1cc(C=NNc2cc(C)nc3c(OC)cccc23)cc(OC)c1OC`
2%

The origin of these recorded values is ChEMBL document CHEMBL1157539.
